Cited source for all entries: ChEMBL document CHEMBL1127510

Quick list: IC50 per entry.
# Tested on: HT-29
# Test description: Compound was tested for cytotoxicity against colon adenocarcinoma
# Type: functional, cell-based, Homo sapiens
# Setup conditions: Homo sapiens, HT-29
State the answer as a number, implicitly in µM.

* COc1cccc2c1C(=O)c1c(O)c3c(c(O)c1C2=O)C[C@@](O)(C(=O)CO)C[C@@H]3O[C@H]1C[C@H](N)[C@H](O)[C@H](C)O1 | 0.18

# ---- query compound ----
Query (compound): "COc1cc(-c2oc3cc(OC)c(OC)c(O)c3c(=O)c2OC)ccc1O" ; field requested: IC50
14.2

====

# Tested on: Colon carcinoma cell
# Test description: In vitro cytotoxicity against colon cancer cell line
# Assay type: functional, cell-based
# Setup conditions: Homo sapiens
Recorded endpoint: EC50 (µg/mL)
Your answer is read as µg/mL, so omit the unit and give the number.

Look at this compound and give its reported EC50. "COC1=C(OC)[C@@]2(OC)c3c(O)c(OC)c4c(c3O[C@@]23O[C@@H](c2ccccc2)CC=C3C1=O)[C@@H](O)C[C@H](c1ccccc1)O4"
0.3

Would you kindly share the measured EC50 for "COC1=C(OC)[C@@]2(OC)c3c(OC)c(O)c4c(c3O[C@@]23O[C@@H](c2ccccc2)CC=C3C1=O)[C@@H](OC)C[C@H](c1ccccc1)O4" ?
0.3

# input compound: "COC1=C(OC)[C@@]2(OC)c3c(O)c(OC)c4c(c3O[C@@]23O[C@@H](c2ccccc2)CC=C3C1=O)[C@@H](OC)C[C@H](c1ccccc1)O4" ; wanted: its EC50
0.4

====

// EC50 lookup, one value per entry
# Test system: P388
# Test description: In vitro cytotoxicity against murine lymphoid neoplasm cell line
# Format: functional, cell-based
# Setup conditions: Mus musculus
Give the number; µg/mL is assumed, so skip it.

* COC1=C(OC)[C@@]2(OC)c3c(O)c(OC)c4c(c3O[C@@]23O[C@@H](c2ccccc2)CC=C3C1=O)[C@@H](O)C[C@H](c1ccccc1)O4 | 0.42

Please look up its EC50: "COC1=C(OC)[C@@]2(OC)c3c(OC)c(O)c4c(c3O[C@@]23O[C@@H](c2ccccc2)CC=C3C1=O)[C@@H](OC)C[C@H](c1ccccc1)O4"
0.2

Using the record for COC1=C(OC)[C@@]2(OC)c3c(O)c(OC)c4c(c3O[C@@]23O[C@@H](c2ccccc2)CC=C3C1=O)[C@@H](OC)C[C@H](c1ccccc1)O4 [CALYCOPTERONE] , report its EC50.
0.78

====

# Test system: SK-VLB
# Test description: Compound was tested for cytotoxicity against ovarian adenocarcinoma, multidrug resistant
# Setup conditions: Homo sapiens
pIC50: −log10 of the molar value.
As shown below, each of these compounds has a reported pIC50 value.

• COc1cccc2c1C(=O)c1c(O)c3c(c(O)c1C2=O)C[C@@](O)(C(=O)CO)C[C@@H]3O[C@H]1C[C@H](N)[C@H](O)[C@H](C)O1 = < 5.00

Turning now to a further record.
State the recorded pIC50 for this entry: "COc1cc(-c2oc3cc(OC)c(OC)c(O)c3c(=O)c2OC)ccc1O"
< 3.88

====

# Test system: Fibrosarcoma cell line
# Test description: In vitro cytotoxicity against fibrosarcoma cell line
# Type: functional, cell-based
# Setup conditions: Homo sapiens
Recorded endpoint: EC50

- COC1=C(OC)[C@@]2(OC)c3c(OC)c(O)c4c(c3O[C@@]23O[C@@H](c2ccccc2)CC=C3C1=O)[C@@H](OC)C[C@H](c1ccccc1)O4: 0.4 µg/mL
- COC1=C(OC)[C@@]2(OC)c3c(O)c(OC)c4c(c3O[C@@]23O[C@@H](c2ccccc2)CC=C3C1=O)[C@@H](O)C[C@H](c1ccccc1)O4: 0.8 µg/mL
- COC1=C(OC)[C@@]2(OC)c3c(O)c(OC)c4c(c3O[C@@]23O[C@@H](c2ccccc2)CC=C3C1=O)[C@@H](OC)C[C@H](c1ccccc1)O4: 1.8 µg/mL

# context switch: different compound, same EC50
What value of measured EC50 is listed for "COc1cc(-c2oc3cc(OC)c(OC)c(O)c3c(=O)c2OC)ccc1O" ?
4.2 µg/mL
